Data provenance: patent US20240209076A1

Molecular target: T1, recombinant human IL-6 (human, UniProt P05231 30-212)
T1 construct: Flowed in solution over the captured antibodies
T1 sequence (P05231 30-212 limits assumed): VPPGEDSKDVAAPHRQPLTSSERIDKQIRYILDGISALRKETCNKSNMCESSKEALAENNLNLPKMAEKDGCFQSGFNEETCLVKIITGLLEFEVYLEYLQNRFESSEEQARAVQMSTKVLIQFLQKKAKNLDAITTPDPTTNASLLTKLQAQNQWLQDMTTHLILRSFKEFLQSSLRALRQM
Experiment: SPR (Biacore), supernatant IgG on Protein A, 25 C
Kindly state koff for each of the entries shown.
Supply the numeric figure in s⁻¹, leaving out any unit text.

Quick one: koff for anti-IL-6 antibody, heavy chain D107E, light chain WT (antibody, IgG1, V domains shown, Full IgG1 tested; V domains derived as in m2) VH: EVQLVESGGGLVQPGGSLRLSCAASGFTFSPFAMSWVRQAPGKGLEWVAKISPGGSWTYYSDTVTGRFTFSLDTSKSTAYLQMNSLRAEDTAVYYCARQLWGYYALEIWGQGTLVTVSS VL: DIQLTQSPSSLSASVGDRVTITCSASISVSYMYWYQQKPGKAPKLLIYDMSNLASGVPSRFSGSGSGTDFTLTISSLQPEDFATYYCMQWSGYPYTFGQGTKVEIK ?
0.000147

Try the binder anti-IL-6 antibody, heavy chain A49T, light chain WT (antibody, IgG1, V domains shown, Full IgG1 tested; V domains derived as in m2) VH: EVQLVESGGGLVQPGGSLRLSCAASGFTFSPFAMSWVRQAPGKGLEWVTKISPGGSWTYYSDTVTGRFTFSLDTSKSTAYLQMNSLRAEDTAVYYCARQLWGYYALDIWGQGTLVTVSS VL: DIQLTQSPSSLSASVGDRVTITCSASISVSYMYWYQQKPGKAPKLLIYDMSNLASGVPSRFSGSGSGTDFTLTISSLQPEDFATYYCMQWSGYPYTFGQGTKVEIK
0.000151

Now the binder anti-IL-6 antibody, heavy chain T28E, light chain WT (antibody, IgG1, V domains shown, Full IgG1 tested; V domains derived as in m2) VH: EVQLVESGGGLVQPGGSLRLSCAASGFEFSPFAMSWVRQAPGKGLEWVAKISPGGSWTYYSDTVTGRFTFSLDTSKSTAYLQMNSLRAEDTAVYYCARQLWGYYALDIWGQGTLVTVSS VL: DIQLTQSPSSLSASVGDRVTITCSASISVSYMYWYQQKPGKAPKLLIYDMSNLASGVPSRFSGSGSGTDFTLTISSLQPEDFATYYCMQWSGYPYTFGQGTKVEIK
0.000163

What about this binder? anti-IL-6 antibody, heavy chain S61A, light chain WT (antibody, IgG1, V domains shown, Full IgG1 tested; V domains derived as in m2) VH: EVQLVESGGGLVQPGGSLRLSCAASGFTFSPFAMSWVRQAPGKGLEWVAKISPGGSWTYYADTVTGRFTFSLDTSKSTAYLQMNSLRAEDTAVYYCARQLWGYYALDIWGQGTLVTVSS VL: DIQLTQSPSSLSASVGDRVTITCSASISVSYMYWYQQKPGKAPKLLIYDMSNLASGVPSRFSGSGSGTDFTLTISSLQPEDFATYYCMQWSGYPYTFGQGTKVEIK
0.000149

Then what about the binder anti-IL-6 antibody, heavy chain S30G, light chain WT (antibody, IgG1, V domains shown, Full IgG1 tested; V domains derived as in m2; also called S30G (heavy chain)) VH: EVQLVESGGGLVQPGGSLRLSCAASGFTFGPFAMSWVRQAPGKGLEWVAKISPGGSWTYYSDTVTGRFTFSLDTSKSTAYLQMNSLRAEDTAVYYCARQLWGYYALDIWGQGTLVTVSS VL: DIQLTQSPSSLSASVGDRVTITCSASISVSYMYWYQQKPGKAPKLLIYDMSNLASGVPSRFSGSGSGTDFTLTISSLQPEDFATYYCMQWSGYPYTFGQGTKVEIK ?
0.000132

Now give it for anti-IL-6 antibody, heavy chain T65G, light chain WT (antibody, IgG1, V domains shown, Full IgG1 tested; V domains derived as in m2) VH: EVQLVESGGGLVQPGGSLRLSCAASGFTFSPFAMSWVRQAPGKGLEWVAKISPGGSWTYYSDTVGGRFTFSLDTSKSTAYLQMNSLRAEDTAVYYCARQLWGYYALDIWGQGTLVTVSS VL: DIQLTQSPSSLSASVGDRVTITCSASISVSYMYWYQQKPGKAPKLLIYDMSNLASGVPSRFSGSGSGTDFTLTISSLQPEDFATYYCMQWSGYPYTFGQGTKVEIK too.
5.69e-05

Likewise for anti-IL-6 antibody, heavy chain I108E, light chain WT (antibody, IgG1, V domains shown, Full IgG1 tested; V domains derived as in m2) VH: EVQLVESGGGLVQPGGSLRLSCAASGFTFSPFAMSWVRQAPGKGLEWVAKISPGGSWTYYSDTVTGRFTFSLDTSKSTAYLQMNSLRAEDTAVYYCARQLWGYYALDEWGQGTLVTVSS VL: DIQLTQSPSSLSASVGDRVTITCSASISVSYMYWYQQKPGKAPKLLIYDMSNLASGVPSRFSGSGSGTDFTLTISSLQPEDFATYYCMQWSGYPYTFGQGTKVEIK ?
0.000174

Thanks! And anti-IL-6 antibody, heavy chain A97V, light chain WT (antibody, IgG1, V domains shown, Full IgG1 tested; V domains derived as in m2) VH: EVQLVESGGGLVQPGGSLRLSCAASGFTFSPFAMSWVRQAPGKGLEWVAKISPGGSWTYYSDTVTGRFTFSLDTSKSTAYLQMNSLRAEDTAVYYCVRQLWGYYALDIWGQGTLVTVSS VL: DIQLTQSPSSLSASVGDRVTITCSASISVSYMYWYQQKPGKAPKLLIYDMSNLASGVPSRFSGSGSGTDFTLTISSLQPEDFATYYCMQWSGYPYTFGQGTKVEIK ?
0.000179

Now give it for anti-IL-6 antibody, heavy chain WT, light chain I27L (antibody, IgG1, V domains shown, Full IgG1 tested; V domains derived as in m2) VH: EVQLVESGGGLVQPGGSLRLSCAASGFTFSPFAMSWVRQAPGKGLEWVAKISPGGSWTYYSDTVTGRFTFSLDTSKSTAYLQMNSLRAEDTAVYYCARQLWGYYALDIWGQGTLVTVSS VL: DIQLTQSPSSLSASVGDRVTITCSASLSVSYMYWYQQKPGKAPKLLIYDMSNLASGVPSRFSGSGSGTDFTLTISSLQPEDFATYYCMQWSGYPYTFGQGTKVEIK too.
0.000145

Can you check anti-IL-6 antibody, heavy chain V64A, light chain WT (antibody, IgG1, V domains shown, Full IgG1 tested; V domains derived as in m2) VH: EVQLVESGGGLVQPGGSLRLSCAASGFTFSPFAMSWVRQAPGKGLEWVAKISPGGSWTYYSDTATGRFTFSLDTSKSTAYLQMNSLRAEDTAVYYCARQLWGYYALDIWGQGTLVTVSS VL: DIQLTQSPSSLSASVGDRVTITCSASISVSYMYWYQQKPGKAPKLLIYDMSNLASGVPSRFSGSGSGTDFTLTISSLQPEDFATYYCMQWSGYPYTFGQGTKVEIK next?
0.000178
